Molecular target: T1, human Proprotein Convertase Subtilisin-like/Kexin type 9 (human, UniProt Q8NBP7 31-692, limits assumed)
T1 construct: Biotinylated in the ELISAs; unlabelled analyte in BLI and SPR; also called human PCSK9; PCSK9
T1 sequence (Q8NBP7 31-692 limits assumed): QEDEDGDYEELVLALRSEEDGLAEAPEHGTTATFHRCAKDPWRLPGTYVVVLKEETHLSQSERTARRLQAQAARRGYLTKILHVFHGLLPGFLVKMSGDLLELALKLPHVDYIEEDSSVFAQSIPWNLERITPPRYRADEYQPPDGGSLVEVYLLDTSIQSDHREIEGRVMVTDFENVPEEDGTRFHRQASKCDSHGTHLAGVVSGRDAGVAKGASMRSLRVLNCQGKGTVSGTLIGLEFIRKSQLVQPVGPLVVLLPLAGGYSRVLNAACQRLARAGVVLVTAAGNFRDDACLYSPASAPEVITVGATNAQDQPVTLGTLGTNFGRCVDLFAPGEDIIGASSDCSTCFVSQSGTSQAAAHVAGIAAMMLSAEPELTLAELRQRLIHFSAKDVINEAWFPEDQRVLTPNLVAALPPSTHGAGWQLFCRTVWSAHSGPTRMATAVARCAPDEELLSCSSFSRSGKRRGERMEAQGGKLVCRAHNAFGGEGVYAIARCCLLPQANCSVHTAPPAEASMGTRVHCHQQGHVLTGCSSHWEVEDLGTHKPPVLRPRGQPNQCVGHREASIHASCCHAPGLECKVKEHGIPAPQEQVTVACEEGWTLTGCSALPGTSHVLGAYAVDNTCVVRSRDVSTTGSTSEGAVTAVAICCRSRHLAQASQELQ
Test: BLI (Octet QK), biotinylated antibody on streptavidin sensors, human PCSK9 in solution, 1:1 fit
Reported koff values follow for various binders
Numeric answer only, unit s⁻¹ assumed.

Examples with their reported koff follow.
Ab8 (antibody, human IgG1, kappa, N297A, V domains shown, also called antibody Ab8) VH: QEQLVESGGGLVQPEGSLTLTCTASGFSFTSDYYMCWVRQAPGKGLEWIGCISTGDGSTYYASWAKGRFTISKPSSTTVTLQMTRLTAADTATYFCARDRYYSYAYGAYVYASDLWGPGTLVTVSS VL: DIVMTQTPASVSEPVGGTVTINCQASESIRNYLSWYQQKPGQRPKLLIYGASTLASGVPSRFKGSGSGTDFTLTISDLECADAATYYCQSNYGISSRSYVNGFGGGTEVVVKR :: 4.91e-05
Ab2 (antibody, human IgG1, kappa, N297A, V domains shown, also called antibody Ab2) VH: QSVEESGGRLVTPGTPLTLTCTVSGFSLSSYAMSWVRQAPGKGLEWIGIIDAIDNTYYASWAKGRFTISKTSTTVDLKMTSLTTGDTATYFCARASILGYSIATGFNIWGPGTLVTVSS VL: AYDMTQTPASVEVAVGGTVTIKCQASQSISSHLAWYQQKSGQPPKLLIYRASTLESGVSSRFKGSGSGTEFTLTISDLECADAATYYCQQGYGVSDVDNGFGGGTEVVVKR :: 0.000453
Ab14 (antibody, human IgG1, kappa, N297A, V domains shown, also called antibody Ab14) VH: QEQLEESGGDLVKPEGSLTLTCTGSGFSFSSIAYMCWIRQAPGKGLEWIGCIGSGSGNTYYANWAKGRFTISKSSSTTVTLQMTSLTAADTATYFCASDTNNGWLGQFNLWGQGTLVTVSS VL: DIVMTQTPASVSAAVGGTVTINCQASQSISSYLAWYQQKPGQPPKLLIYRASTLASGVPSRFKGSGSGTQFTLTISDLECADAATYYCQGYYSVTTNTYGNTFGGGTEVVVKR :: 0.000362
Ab17 (antibody, human IgG1, kappa, N297A, V domains shown, also called antibody Ab17) VH: QEQLEESGGDLVKPEGSLTLTCTASGFSFSSSYWICWVRQAPGKGLEWIGCIRPGSADYYASWAKGRFTISRASSSTVTLQMTSLTAADTATYFCASDINDGWLGQFNLWGPGTLVTVSS VL: DVVMTQTPASVEAAVGGTVTIKCQASLSIADYLAWYLQKPGQPPKLLIYRASTLASGVPSRFKGSGSGTEYTLTISDLECADAATYYCQSYYSVTTNTYGNTFGGGTEVVVKR :: 6.27e-05

We next turn to a different binder, shown below.
Request: Which koff is reported for this binder? Ab6 (antibody, human IgG1, kappa, N297A, V domains shown, also called antibody Ab6) VH: QEQLEESGGDLVKPEGSLTLTCTASGFSFSSNYWICWVRQAPGKGLEWIGCIRDGGGTYYASWAKGRLTISMTSSTTVTLQLNSLTAADTATYFCASDINDGWLGQFNLWGPGTLVTVSS VL: DIVMTQTPASVEVAVGGTVTIKCQASQSISAYLAWYQQKPGQPPKLLIYRAYTLASGVPSRFKGSGSGTQFTLTISDLECADAATYYCQSYYSVTTNTYGNTFGGGTEVVVKR
Result: 4e-05
